Reported Max (% of), CHTX, SUP B-15, 1.0 uM values follow for various binders
molecular target: CXCR4 receptor (human, UniProt P61073 1-352); test: cell-based or functional assay
Sequence (P61073 whole entry): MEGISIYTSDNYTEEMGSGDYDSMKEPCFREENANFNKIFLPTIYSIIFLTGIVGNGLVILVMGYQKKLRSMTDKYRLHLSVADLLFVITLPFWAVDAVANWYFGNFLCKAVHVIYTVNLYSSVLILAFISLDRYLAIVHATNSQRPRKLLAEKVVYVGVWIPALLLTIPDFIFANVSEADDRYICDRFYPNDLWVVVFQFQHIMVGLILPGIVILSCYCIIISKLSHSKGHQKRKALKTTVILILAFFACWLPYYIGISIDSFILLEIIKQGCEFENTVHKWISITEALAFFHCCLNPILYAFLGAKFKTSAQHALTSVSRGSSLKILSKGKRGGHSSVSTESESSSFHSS
* marks the point of attachment. Palmitoyl = CCCCCCCCCCCCCCCC(=O)*
Please reply with the bare figure in % and do not write the unit itself.

## Task Give me measured Max (% of), CHTX, SUP B-15, 1.0 uM, please, for this binder: Palmitoyl-KKLRSMTDKYRLHL-NH2 (SMILES CCCCCCCCCCCCCCCC(=O)N[C@@H](CCCCN)C(=O)N[C@@H](CCCCN)C(=O)N[C@@H](CC(C)C)C(=O)N[C@@H](CCCNC(=N)N)C(=O)N[C@@H](CO)C(=O)N[C@@H](CCSC)C(=O)N[C@H](C(=O)N[C@@H](CC(=O)O)C(=O)N[C@@H](CCCCN)C(=O)N[C@@H](Cc1ccc(O)cc1)C(=O)N[C@@H](CCCNC(=N)N)C(=O)N[C@@H](CC(C)C)C(=O)N[C@@H](Cc1c[nH]cn1)C(=O)N[C@@H](CC(C)C)C(N)=O)[C@@H](C)O) [CXCR4 i1 loop compound 42]
## Result 33.5

Now let's try a different one.
## Task Give me measured Max (% of), CHTX, SUP B-15, 1.0 uM, please, for this binder: Palmitoyl-KKLRSMTDKYRL-NH2 (SMILES CCCCCCCCCCCCCCCC(=O)N[C@@H](CCCCN)C(=O)N[C@@H](CCCCN)C(=O)N[C@@H](CC(C)C)C(=O)N[C@@H](CCCNC(=N)N)C(=O)N[C@@H](CO)C(=O)N[C@@H](CCSC)C(=O)N[C@H](C(=O)N[C@@H](CC(=O)O)C(=O)N[C@@H](CCCCN)C(=O)N[C@@H](Cc1ccc(O)cc1)C(=O)N[C@@H](CCCNC(=N)N)C(=O)N[C@@H](CC(C)C)C(N)=O)[C@@H](C)O) [Compound No. 44 (Pal-KKLRSMTDKYRL-amide)]
## Result 31.5
